system: TK-10; test: NCI tumour cell line growth inhibition, 48 h
Activity calls are given as the source filed them. No stated cut-off is given here; in the data, active = GI50 up to about 1.1 µM and inactive = higher.
Measured GI50 of individual entries
assayReadout: GI50

INSERT INTO results (compound, experimentalresult) VALUES
  ('O=C(O)C1CC(c2ccccc2)=NN1c1ccccc1 (centres undefined)', '64 µM (inactive)'),
  ('CCOc1cc(CCNC)c2c(ccc3ccc(OC)c(O)c32)c1OC', '18 µM (inactive)'),
  ('COc1ccc(-c2oc3cc(OC)c(OC)c(O)c3c(=O)c2OC)cc1', '34.1 µM (inactive)'),
  ('CN(C)C(=S)/N=c1\ssc(=S)n1Cc1cccnc1', '14.2 µM (inactive)'),
  ('NNC(=O)C(=O)NN=C(C(Cl)(Cl)CO)C(Cl)(Cl)CO', '60.3 µM (inactive)'),
  ('COc1cc(C2c3cc4c(cc3OC(N3CCNCC3)C2C)OCO4)cc(OC)c1OC (centres undefined)', '20.7 µM (inactive)'),
  ('COC(=O)[C@]1(C)CCC[C@@]2(C)C1CCC1=C[C@@]3(C(C)C)CC[C@]12OO3 (some centres undefined)', '> 100 µM (inactive)'),
  ('COc1ccc(/C=C2\N/C(=N\N=C/C(O)C(O)C(O)C(O)CO)NC2=O)cc1 (centres undefined)', '41.6 µM (inactive)'),
  ('COC(=O)c1ccccc1C1CN=NC12Cc1c(ccc(C)c1C)C2=O (centres undefined)', '> 100 µM (inactive)'),
  ('CCN(CC)c1cccc2c1/C(=N/O)CCCC2', '> 100 µM (inactive)'),
  ('O=C1N=C(S)NNC12c1ccccc1-c1ccccc12', '> 10 µM (inactive)'),
  ('C[N+](C)(C)CCC(=O)CC[N+](C)(C)C', '17 µM (inactive)'),
  ('CCN(CC)CCCN(c1cc(OC)cc2nccnc12)S(=O)(=O)c1ccc(C)cc1', '> 100 µM (inactive)'),
  ('COc1ccc(-c2cc(-c3ccccc3)n(C3OC(COC(C)=O)C(OC(C)=O)C(OC(C)=O)C3OC(C)=O)c(=S)c2C#N)cc1 (centres undefined)', '25.9 µM (inactive)');
